meta.source: PubChem BioAssay AID1117319

- measured target: Virion infectivity factor (Human immunodeficiency virus type 1 group M subtype B (isolate BH10)) + Virion infectivity factor (Human immunodeficiency virus type 1 group M subtype B (isolate BRU/LAI)) + Virion infectivity factor (Human immunodeficiency virus type 1 group M subtype B (isolate PCV12)) + Virion infectivity factor (Human immunodeficiency virus type 1 group M subtype B (isolate HXB2)) + DNA dC->dU-editing enzyme APOBEC-3G (Homo sapiens) (UniProt P69720+P69721+P69722+P69723+Q9HC16)
- assay method text: inhibitors of Vif binding to APOBEC3G peptide, primary screen, biochemical, TR-FRET, GST-Vif 1-94, biotin-A3G peptide, dose response retest (AID 1117319);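 further: Vif residues 1-94 fused to GST binding biotinylated APOBEC3G peptide 110-148; 0% = full assay without inhibitor and 100% = GST in place of GST-Vif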
- study conditions: active compounds read high
Among all 260,000 compounds or so, about 1,500 (0.58%) were called active. Inconclusive results (about 5%) are left out. Only a sample is shown. Potency and affinity values are given separately.
Listed next: entries and their corresponding inhibition.
The reply should be a number in %, with the unit left off.

>>> recorded_value("CCOC(=O)c1c(C)oc2c1c(C=NCC1CCCO1)c(O)c1ccccc12 (stereo unspecified)")
25.6
>>> recorded_value("CCOc1cc(CNc2ccccc2)cc(Br)c1OCc1ccc(F)cc1")
-2.02

Lookup result for Cc1ccc(C)c(Cn2nnc3c(=O)[nH]c(C4CCN(S(=O)(=O)c5ccc(S(=O)(=O)NC6CC6)cc5)CC4)nc32)c1 ; measured inhibition: -11.5

Lookup result for CCOc1ccccc1CNc1ccc(O)cc1 ; measured inhibition: -1.14

Lookup result for COc1cc2[nH]c(=S)n(Cc3cccs3)c(=O)c2cc1OC ; measured inhibition: -5.73

Lookup result for COc1cc(CNC(C)(C)CO)cc(Br)c1OCc1ccccc1 ; measured inhibition: 14.2

Lookup result for CCOC(=O)c1c(C)oc2c1c(C=NCCO)c(O)c1ccccc12 ; measured inhibition: 14.7

###

- measured target: Virion infectivity factor (Human immunodeficiency virus type 1 group M subtype B (isolate BH10)) + Virion infectivity factor (Human immunodeficiency virus type 1 group M subtype B (isolate BRU/LAI)) + Virion infectivity factor (Human immunodeficiency virus type 1 group M subtype B (isolate PCV12)) + Virion infectivity factor (Human immunodeficiency virus type 1 group M subtype B (isolate HXB2)) + DNA dC->dU-editing enzyme APOBEC-3G (Homo sapiens) (UniProt P69720+P69721+P69722+P69723+Q9HC16)
- assay method text: inhibitors of Vif binding to APOBEC3G peptide, primary screen, biochemical, TR-FRET, GST-Vif 1-94, biotin-A3G peptide, dose response retest (AID 1117319)
- study conditions: active compounds read high
In all, about 260,000 compounds went through this assay and about 1,500 (0.58%) were called active. Inconclusive results (about 5%) are left out. The list is a sample of the results. Potency and affinity values are given separately.
Listed next: entries and their corresponding inhibition.
The reply should be a number in %, with the unit left off.

Would you please look over these solved cases?
>>> recorded_value("CCOc1ccc(/C=N/NC(=O)C(OC)c2ccccc2)cc1 (centres undefined)")
-8.04
>>> recorded_value("Cc1ccc(C)n1-c1ccc(C(=O)NN)cc1")
-3.66
>>> recorded_value("O=[N+]([O-])c1cc(CN2CCN(c3ccccc3)CC2)c(O)c2ncccc12")
12.7
>>> recorded_value("CCOC(=O)c1cnc2c(C#N)cnn2c1N")
-5.32
>>> recorded_value("CCc1ccc(C(=O)O)cc1")
0.16
>>> recorded_value("CC1(C)Cc2c(C#N)c(N3CCN(C(=O)c4ccccc4Cl)CC3)nc(-c3ccco3)c2CS1")
15
>>> recorded_value("O=[N+]([O-])c1cc(Cl)c2cccnc2c1O")
-6.11
>>> recorded_value("Cc1cc(N)ccc1-n1c(C)ccc1C")
15.6

Lookup result for COc1cccc(-c2cccc(NC(=O)C3CCN(CCCn4cccn4)CC3)c2)c1 ; measured inhibition: 6

Lookup result for Cc1ccc(-c2ccccc2)n1-c1cccc(C(=O)O)c1 ; measured inhibition: 0.87

###

- measured target: Virion infectivity factor (Human immunodeficiency virus type 1 group M subtype B (isolate BH10)) + Virion infectivity factor (Human immunodeficiency virus type 1 group M subtype B (isolate BRU/LAI)) + Virion infectivity factor (Human immunodeficiency virus type 1 group M subtype B (isolate PCV12)) + Virion infectivity factor (Human immunodeficiency virus type 1 group M subtype B (isolate HXB2)) + DNA dC->dU-editing enzyme APOBEC-3G (Homo sapiens) (UniProt P69720+P69721+P69722+P69723+Q9HC16)
- assay method text: inhibitors of Vif binding to APOBEC3G peptide, primary screen, biochemical, TR-FRET, GST-Vif 1-94, biotin-A3G peptide, dose response retest (AID 1117319);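 further: Vif residues 1-94 fused to GST binding biotinylated APOBEC3G peptide 110-148; 0% = full assay without inhibitor and 100% = GST in place of GST-Vif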
- study conditions: active compounds read high
The campaign covered roughly 260,000 compounds. About 1,500 (0.58%) were called active. Another 5% or so got no clear call; they are omitted. Only a sample is shown. Results with a measured potency or affinity are listed apart.
Listed next: entries and their corresponding inhibition.
The reply should be a number in %, with the unit left off.

>>> recorded_value("O=C(CCN1C(=O)/C(=C/c2ccco2)SC1=S)Nc1ccc(O)cc1C(=O)O")
20.3
>>> recorded_value("Cc1ccc(-c2nnc(-c3ccncc3)n2-c2ccc(C)cc2)cc1")
-0.95
>>> recorded_value("Cc1nn(Cc2ccccc2)c(C)c1C(=O)OCC(=O)c1cc(C)n(CC(F)(F)F)c1C")
13.3

Lookup result for COc1ccccc1C1CCN(Cc2ccc(Cl)c(Cl)c2)CC1 ; measured inhibition: -7.3

Lookup result for O=C(CCCN1C(=O)/C(=C\c2cccs2)SC1=S)Nc1ccccc1O ; measured inhibition: 3.84

###

- measured target: Virion infectivity factor (Human immunodeficiency virus type 1 group M subtype B (isolate BH10)) + Virion infectivity factor (Human immunodeficiency virus type 1 group M subtype B (isolate BRU/LAI)) + Virion infectivity factor (Human immunodeficiency virus type 1 group M subtype B (isolate PCV12)) + Virion infectivity factor (Human immunodeficiency virus type 1 group M subtype B (isolate HXB2)) + DNA dC->dU-editing enzyme APOBEC-3G (Homo sapiens) (UniProt P69720+P69721+P69722+P69723+Q9HC16)
- assay method text: inhibitors of Vif binding to APOBEC3G peptide, primary screen, biochemical, TR-FRET, GST-Vif 1-94, biotin-A3G peptide, dose response retest (AID 1117319);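 further: Vif residues 1-94 fused to GST binding biotinylated APOBEC3G peptide 110-148; 0% = full assay without inhibitor and 100% = GST in place of GST-Vif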
- study conditions: active compounds read high
Screen size: about 260,000 compounds; about 1,500 (0.58%) were called active. About 5% were inconclusive and are not listed. A selection follows. Potency and affinity values are given separately.
quantity: inhibition (%)
The reply should be a number in %, with the unit left off.

Would you please look over these solved cases?
>>> recorded_value("Cc1ccccc1NC(=O)CSc1n[nH]c(-c2ccco2)n1")
9.51
>>> recorded_value("COc1ccc(CCNC(=O)CCCc2ccccc2)cc1OC")
1
>>> recorded_value("Cc1cc(C)c(NC(=O)CSc2nc3c(c(=O)n2C)SC(C)C3)c(C)c1 (configuration not stated)")
3.57

Lookup result for Cc1ccc(C)c(NC(=O)CSc2nc3c(c(=O)n2C)SC(C)C3)c1 (configuration not stated) ; measured inhibition: 8.15

Lookup result for CC1CCCCN1C(=O)CSc1nc2ccccc2[nH]1 (configuration not stated) ; measured inhibition: -5.81

Lookup result for N#Cc1c(F)cccc1NCc1cccs1 ; measured inhibition: -3.38

Lookup result for CCOC(=O)N1CCN(C(=O)COc2ccc(S(=O)(=O)NC(C)C)cc2)CC1 ; measured inhibition: -4.61

Lookup result for CCCNS(=O)(=O)c1ccc(OCC(=O)N2CCC(C(=O)OCC)CC2)cc1 ; measured inhibition: -4.14

Lookup result for COc1cc(NCCCCC(C)N)c2nccc(C)c2c1 (configuration not stated) ; measured inhibition: 9.33

Lookup result for Cc1cccc(C)c1NC(=O)CSc1nnc(-c2ccco2)n1N ; measured inhibition: -0.27

Lookup result for Cc1cccc(C)c1NC(=O)CSc1nc(-c2ccco2)cc(C(F)(F)F)n1 ; measured inhibition: -1.99

Lookup result for Cc1ccccc1NC(=O)CSc1nnc(-c2ccco2)n1N ; measured inhibition: -10.3

###

- measured target: Virion infectivity factor (Human immunodeficiency virus type 1 group M subtype B (isolate BH10)) + Virion infectivity factor (Human immunodeficiency virus type 1 group M subtype B (isolate BRU/LAI)) + Virion infectivity factor (Human immunodeficiency virus type 1 group M subtype B (isolate PCV12)) + Virion infectivity factor (Human immunodeficiency virus type 1 group M subtype B (isolate HXB2)) + DNA dC->dU-editing enzyme APOBEC-3G (Homo sapiens) (UniProt P69720+P69721+P69722+P69723+Q9HC16)
- assay method text: inhibitors of Vif binding to APOBEC3G peptide, primary screen, biochemical, TR-FRET, GST-Vif 1-94, biotin-A3G peptide, dose response retest (AID 1117319);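 further: Vif residues 1-94 fused to GST binding biotinylated APOBEC3G peptide 110-148; 0% = full assay without inhibitor and 100% = GST in place of GST-Vif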
- study conditions: active compounds read high
The whole screen tested about 260,000 compounds, of which about 1,500 (0.58%) were called active. Roughly 5% stayed inconclusive and do not appear here. These entries were drawn from the full list. Entries with a potency or affinity are not part of this list.
Listed next: entries and their corresponding inhibition.

Would you please look over these solved cases?
>>> recorded_value("O=C(O)c1ccc(NS(=O)(=O)c2ccc3c(c2)C2C=CCC2C(c2ccccc2F)N3)cc1 (stereo not drawn)")
"-10% (inactive)"
>>> recorded_value("O=Cc1cc(N=Nc2cccc(C(=O)O)c2)ccc1O")
"8.26% (inactive)"
>>> recorded_value("Cc1ncsc1CCSc1nc2ccccc2c(=O)n1C")
"-1.02% (inactive)"

Lookup result for O=C1CCCC(O)=C1N=Nc1ccc(Cl)c(Cl)c1 ; measured inhibition: -7.94% (inactive)

Lookup result for COC(=O)c1ccc2c(=O)n(CC3CCCO3)c(SCC(=O)Nc3ccc(OC)cc3OC)nc2c1 (stereo not drawn) ; measured inhibition: -7.78% (inactive)

Lookup result for O=C(NCc1ccco1)c1cccnc1Cl ; measured inhibition: 2.06% (inactive)

Lookup result for Cc1nc(N2CCN(C(=O)c3ccco3)CC2)nc2c1C(=O)CC(C)C2 (stereo not drawn) ; measured inhibition: -2.42% (inactive)

Lookup result for CN1c2ccccc2C(O)=C(C(=S)Nc2ccc(F)c(Cl)c2)S1(=O)=O ; measured inhibition: -0.79% (inactive)
